Kindly state pEC50 for each of the entries shown.
# measured on: human mAChR M1 (Homo sapiens, UniProt P11229)
# Sequence (P11229 whole entry): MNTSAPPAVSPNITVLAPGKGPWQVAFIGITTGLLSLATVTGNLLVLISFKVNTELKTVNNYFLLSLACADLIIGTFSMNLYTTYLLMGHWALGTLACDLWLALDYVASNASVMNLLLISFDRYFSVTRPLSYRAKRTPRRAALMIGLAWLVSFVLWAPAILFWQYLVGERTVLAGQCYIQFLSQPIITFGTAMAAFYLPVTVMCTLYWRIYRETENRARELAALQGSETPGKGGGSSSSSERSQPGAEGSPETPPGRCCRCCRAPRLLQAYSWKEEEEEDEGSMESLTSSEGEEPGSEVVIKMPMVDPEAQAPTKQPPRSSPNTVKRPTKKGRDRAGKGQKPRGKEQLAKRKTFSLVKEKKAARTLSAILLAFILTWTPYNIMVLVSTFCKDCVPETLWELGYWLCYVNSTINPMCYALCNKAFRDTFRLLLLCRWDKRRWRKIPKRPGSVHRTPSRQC
# protocol summary: mAChR M1 cell-based functional assay (calcium mobilization), agonist mode: compound alone, Emax relative to acetylcholine maximum
# condition info: human mAChR M1
// returns pEC50 (minus log10 of molar concentration), number only

# pEC50 (compound: [2H]C1([2H])c2ncccc2C(=O)N1Cc1c(F)cc(-c2ccc(C(F)(F)F)c3nn(C)cc23)cc1C1CC1 [Compound 207] ) is 5.09

# pEC50 (compound: [2H]C([2H])([2H])c1cc2c(-c3cc(F)c(CN4C(=O)c5cccnc5C4([2H])[2H])c(F)c3)cccn2n1 [Compound 236] ) is 5.02

# pEC50 (compound: [2H]C1([2H])c2ncccc2C(=O)N1Cc1c(F)cc(-c2ccc(O[C@H]3CCOC3)c3nn(C)cc23)cc1F [Compound 136] ) is 5.07

# pEC50 (compound: [2H]C1([2H])c2ncccc2C(=O)N1Cc1c(F)cc(-c2ccc(OCCOC)c3nn(C)cc23)cc1OCC(C)C [Compound 218] ) is 5.11

Taken from patent US20240228489A1.
